test_description: Pulmonary kinetics by intratracheal route, multiple dose (7 days)
Format: in vivo, Wistar rats
condition_parameters: both sexes, Wistar, rat, lung, inhaled or intranasal, 1 mg/kg, 1 mg/kg IT for 7 days, lung, Day-1; read-out: t1/2, Lung, Day-1, N-Oxide (converted)
measured_endpoint: half-life (h)
Entry rule: numbers only, all in h.

Request: For O=C(Nc1c(Cl)c[n+]([O-])cc1Cl)c1ccc(OC(F)F)c(OCC2CC2)c1 [Roflumilast N-oxide] , what is its reported half-life?
Response: 2.54

----------
test_description: Pulmonary kinetics by intratracheal route, single dose
Assay type: in vivo, Wistar rats
condition_parameters: both sexes, Wistar, rat, inhaled or intranasal; single dose 1 mg/kg IT, plasma; read-out: AUC0-t, Plasma, N-Oxide
measured_endpoint: AUC(0-t) (ng·h/mL)
Entry rule: numbers only, all in ng·h/mL.

Request: For O=C(Nc1c(Cl)c[n+]([O-])cc1Cl)c1ccc(OC(F)F)c(OCC2CC2)c1 [Roflumilast N-oxide] , what is its reported AUC(0-t)?
Response: 4160

----------
test_description: Pulmonary kinetics by intratracheal route, single dose
Type: in vivo, Wistar rats
condition_parameters: both sexes, Wistar, rat, inhaled or intranasal; single dose 1 mg/kg IT, plasma; read-out: Cmax, Plasma, N-Oxide
measured_endpoint: Cmax (ng/mL)
Entry rule: numbers only, all in ng/mL.

Request: For O=C(Nc1c(Cl)c[n+]([O-])cc1Cl)c1ccc(OC(F)F)c(OCC2CC2)c1 [Roflumilast N-oxide] , what is its reported Cmax?
Response: 530

----------
test_description: Pulmonary kinetics by intratracheal route, multiple dose (7 days)
Type: in vivo, Wistar rats
condition_parameters: both sexes, Wistar, rat, lung, inhaled or intranasal, 1 mg/kg, 1 mg/kg IT for 7 days, lung, Day-1; read-out: Tmax, Lung, Day-1, N-Oxide
measured_endpoint: Tmax (min)
Entry rule: numbers only, all in min.

Request: For O=C(Nc1c(Cl)c[n+]([O-])cc1Cl)c1ccc(OC(F)F)c(OCC2CC2)c1 [Roflumilast N-oxide] , what is its reported Tmax?
Response: 15

These measurements were taken from patent US11103488B2.
